Hey, just so you know, these numbers are from the supplement of paper PMC7877785.

The entries below are paired with their reported self-splicing fitness (ln).
experiment: self-splicing fitness, log relative to wild type (ln ratio); higher = more splicing; Tetrahymena group I intron in knt gene, E. coli kanamycin selection, DiMSum; sequences stand for … in CUCUCU…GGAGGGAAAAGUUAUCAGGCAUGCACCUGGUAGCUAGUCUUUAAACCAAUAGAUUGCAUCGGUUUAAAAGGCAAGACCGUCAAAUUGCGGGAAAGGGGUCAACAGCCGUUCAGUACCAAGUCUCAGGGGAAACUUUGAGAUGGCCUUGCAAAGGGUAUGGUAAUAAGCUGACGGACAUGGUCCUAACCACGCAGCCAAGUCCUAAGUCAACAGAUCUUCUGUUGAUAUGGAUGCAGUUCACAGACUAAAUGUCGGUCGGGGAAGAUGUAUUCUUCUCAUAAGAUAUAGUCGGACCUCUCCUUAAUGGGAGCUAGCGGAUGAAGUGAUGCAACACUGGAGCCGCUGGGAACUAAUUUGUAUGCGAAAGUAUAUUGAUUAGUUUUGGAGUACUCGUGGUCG; conditions: 37 °C;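 note: selection with 25 µg/mL kanamycin versus none on LB agar overnight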

Below, each entry is followed by its recorded self-splicing fitness (ln) result.
seq | self-splicing fitness (ln)
UAAUAGCAAUAUUACGAACU | -1.62
CUAUAGCAAUAUUACGGACA | -1.1

Okay, now this sequence:
Challenge: Which self-splicing fitness (ln) value belongs to ACUCAGCAAUAUUACGCCUA ?
Response given: -0.0704
